# Tested on: Leishmania donovani
# ASSAY_EXPLANATION: Leishmania intramacrophage assay
# Format: functional, organism-based
# Design: scale not given: in the data most compounds retested in dose-response had high values
# ASSAY_CONDITIONS: 30.3 µM; […]
Screen size: about 69,000 compounds; about 1,000 (1.4%) showed an effect of 50% or more. This is one part of a sample in which strong results are shown more often than they occur.
Response key: satisfied means Percent Effect >= 10%; not satisfied means Percent Effect < 10%.

| MOLECULE | TESTED_ON | ASSIGNED_CLASS |
| --- | --- | --- |
| NCC(c1ccc(Cl)cc1)N1CCc2sccc2C1 (configuration not stated) | Leishmania donovani | satisfied |

Req: Entry Cc1cccc(CN(Cc2ccccn2)Cc2ncc(C(C)(C)C)o2)c1 : is its Percent Effect no less than 10%?
Resp: satisfied

Req: Entry CCn1cc(CN2CCC(C3CCN(C)CC3)CC2)cc1C#N : is its Percent Effect no less than 10%?
Resp: not satisfied

Req: Entry CC(C)n1cnc2c1C(C(=O)N1CCOCC1)N(CC1CC1)CC2.O=C(O)C(F)(F)F (configuration not stated) : is its Percent Effect no less than 10%?
Resp: satisfied

Req: Entry Cc1ccc(C2CCCN(C(=O)c3cnn(C)c3)C2)nc1 (configuration not stated) : is its Percent Effect no less than 10%?
Resp: not satisfied

Req: Entry CCC1(CO)CCCN(C(=O)c2cc(COc3ccccc3F)[nH]n2)C1 (configuration not stated) : is its Percent Effect no less than 10%?
Resp: not satisfied

Req: Entry CCOc1cc(CNCCCn2ccnc2)cc(Cl)c1OC : is its Percent Effect no less than 10%?
Resp: satisfied
